test system: PANC-1; experiment: Cytotoxicity against human PANC1 cells after 72 hrs by MTT assay; format: functional, cell-based; conditions: PANC-1, 72 h
MEASUREMENT_KIND: IC50 (µM)
Dear colleague, please return just the value in µM, with no unit written.

// fetch IC50 for C=C/C=C\[C@H](C)[C@H](OC(N)=O)[C@@H](C)[C@H](O)[C@@H](C)C/C(C)=C\[C@H](C)[C@@H](O)[C@@H](C)/C=C\[C@@H](O)C[C@@H]1OC(=O)[C@H](C)[C@@H](O)[C@H]1C [DISERMOLIDE] ; system: PANC-1 0.059

// fetch IC50 for C=C/C=C\[C@H](C)[C@@H]1OC(=O)/C=C\C=C\[C@@H](C)[C@@H](O)C[C@H](O)/C=C\[C@H](C)[C@H](O)[C@@H](C)C[C@@H](C)CC[C@@H](O)[C@@H]1C ; system: PANC-1 0.0034

// fetch IC50 for CC(=O)O[C@H]1C(=O)[C@@]2(C)[C@H]([C@H](OC(=O)c3ccccc3)[C@]3(O)C[C@H](OC(=O)[C@H](O)[C@@H](NC(=O)c4ccccc4)c4ccccc4)C(C)=C1C3(C)C)[C@]1(OC(C)=O)CO[C@@H]1C[C@@H]2O ; system: PANC-1 0.007

// fetch IC50 for C=C/C=C\[C@H](C)[C@@H]1OC(=O)/C=C\C=C\[C@@H](C)[C@@H](O)C[C@H](O)CC[C@H](C)[C@H](O)[C@@H](C)C[C@@H](C)CC[C@@H](O)[C@@H]1C ; system: PANC-1 0.018
